- MEASURED ON: Bcl-xL, Q07817
- Sequence (Q07817 1-209): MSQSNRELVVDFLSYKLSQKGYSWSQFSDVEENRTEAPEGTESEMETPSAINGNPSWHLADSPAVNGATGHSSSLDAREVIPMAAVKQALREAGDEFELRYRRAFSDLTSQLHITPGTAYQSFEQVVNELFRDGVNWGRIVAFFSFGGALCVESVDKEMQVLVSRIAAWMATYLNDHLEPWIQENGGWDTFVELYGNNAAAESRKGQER
- ASSAY EXPLANATION: peptide SPOT array, c-Myc-tagged receptor at 1 uM or 100 nM, anti-c-Myc-Cy3
METRIC NAME: SPOT signal as a fraction of Bim BH3's signal on the same receptor and array
Give bare numbers.

Before answering, review these 5 worked examples.
Which SPOT signal as a fraction of Bim BH3's signal on the same receptor and array is reported for this binder? SDDVQKIVEELQSLSKMLLKDVEEEK [IL31]
0.03

Now this one: YKGHREIARYLLEQLAQVNRRSAKGN [FEM1A]
0.81

Entry TETKATFGVHLKIVLDWTERFRDLLL [NOX4] please
0.07

Another binder to check: TCELREFVKNIDQVSSEVLEGWPDSY [TLR6]
0.02

Lookup LDDVKILANGLLQLGHGLKDFVHKTK [ANGPTL3]
0.04

Give one value of SPOT signal as a fraction of Bim BH3's signal on the same receptor and array per listed binder.
1. PPDAHVLGKALEAAGQDFSLDLRSTG [CIITA]
2. TGGLPELASRLTRISAVLLEGMNKET [TCP11L2]
3. VLSRIEAGRSLKSVLDEFGISKSTFY [TIGD7]
4. KLPVVGIGKHLCGMLTDLALRCLVET [CCDC76]

0.02
0.03
0.08
0.04

Batch lookup, SPOT signal as a fraction of Bim BH3's signal on the same receptor and array per entry.
1. GELAQVSGLEMRKWLDELFIIIMDML [mTOR]
2. PYLSKHRADRDRRLGDFLNQESFDLA [SMPD2]
3. VILADPDGHEDCFVGDEAFRELSKMD [GLOD4]
4. QASREAGAAALRNVAQRLFENYQTQS [CCDC68]
5. GYPFNDVCQWDIDRADLIFVVFDPTK [SRL]
6. HGTSSRIGSSDKSVGEVMAIGRTFEE [CPS1]

1. 0.02
2. 0.49
3. 0.01
4. 0.36
5. 0.07
6. 0.02
